- TARGET_OF_ASSAY: Bromodomain-containing protein 4 (Homo sapiens, UniProt O60885)
- ASSAY_OVERVIEW: Binding affinity to His6-tagged BRD4 expressed in Escherichia coli by surface plasmon resonance assay
ATTRIBUTE_MEASURED: pKd
Numbers only, as −log10 of the molar value.

Consider "Cc1noc(C)c1-c1ccc(OCCCN2CCOCC2)c(S(=O)(=O)NC2CCCC2)c1" . Its measured pKd is 5.56

----------
- Test system: Blood
- ASSAY_OVERVIEW: Antiinflammatory activity in human whole blood assessed as inhibition of LPS-induced TNFalpha production after 18 to 24 hrs by ELISA
- Format: functional, tissue-based
ATTRIBUTE_MEASURED: pIC50
One number for each entry, as −log10 of the molar value.

// pIC50 lookup, molecule = "Cc1ccc(-c2c(C)noc2C)cc1S(=O)(=O)NC1CCCC1" , result: 5.30
